# ASSAY TARGET: dopamine D2 receptor (Rattus norvegicus, UniProt P61169)
# Sequence (P61169 whole entry): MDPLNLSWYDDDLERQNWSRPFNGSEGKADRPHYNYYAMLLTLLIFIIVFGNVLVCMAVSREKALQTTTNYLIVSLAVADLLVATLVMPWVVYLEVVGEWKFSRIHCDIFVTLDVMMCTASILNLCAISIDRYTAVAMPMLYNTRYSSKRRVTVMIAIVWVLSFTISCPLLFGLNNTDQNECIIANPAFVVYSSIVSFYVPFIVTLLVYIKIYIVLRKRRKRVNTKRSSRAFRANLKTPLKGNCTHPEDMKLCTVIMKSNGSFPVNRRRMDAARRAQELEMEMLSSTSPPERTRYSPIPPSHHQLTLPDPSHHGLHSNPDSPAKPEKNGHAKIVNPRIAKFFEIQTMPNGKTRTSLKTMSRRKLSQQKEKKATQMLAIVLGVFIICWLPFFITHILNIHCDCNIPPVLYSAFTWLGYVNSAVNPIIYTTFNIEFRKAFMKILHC
# PROCEDURE TEXT: Receptor binding assay, 3H-ADTN displacement on rat striatal membranes (affinity for the dopamine D2 receptor)
# Parameters: species or system rat (Sprague Dawley)
# ASSAY CONTEXT: rat striatal membranes, 1 nM 3H-ADTN, 0.1 μM SCH 23390, 40 min at 25° C., non-specific binding with 50 nM spiperone; read-out: Ki, affinity of the test substances for the dopamine D2 receptor
pKi: −log10 of the molar value. Structures can show the parent of a compound that is named as a salt.
TEST READOUT: pKi

{"COMPOUND": "Cc1nc(N)sc1SCCN1CCN(c2ccccc2)CC1 [Example 3, hydrochloride]", "TEST READOUT": "pKi", "VALUE REPORTED": 7.72}
{"COMPOUND": "CCCN(CCCSc1sc(N)nc1C)CCc1ccccc1 [Example 7, tartrate]", "TEST READOUT": "pKi", "VALUE REPORTED": 8.05}
{"COMPOUND": "Cc1nc(N)sc1SCCN1CCC(c2ccccc2)CC1 [Example 1, hydrochloride]", "TEST READOUT": "pKi", "VALUE REPORTED": 7.92}
{"COMPOUND": "CCCN(CCSc1sc(N)nc1C)CCc1ccccc1 [Example 5, hydrochloride]", "TEST READOUT": "pKi", "VALUE REPORTED": 7.74}
